pIC50: −log10 of the molar value.
Let's look at some pIC50 data for HPK1 (Homo sapiens (Human)) that I collected from the literature.
Measured parameter: pIC50

{"Compound": "O=C1NCc2c(-c3cnc4n3CCCCC4)ccc(Nc3ccc(N4CCC(O)CC4)cn3)c21", "Meas value": "6.00 to 7.00"}
{"Compound": "CNC1CCN(c2ccc(Nc3ccc(-c4cnc5cc(C)ccn45)c4c3C(=O)NC4)nc2)CC1", "Meas value": "> 7.00"}
{"Compound": "N[C@H]1CN(c2c(NC(=O)c3ccc(=O)n(-c4c(F)cccc4F)n3)ccc3c2cnn3C2CC2)CC12CC2", "Meas value": "> 7.00"}
{"Compound": "Cc1c(-c2cc3nc(Nc4ccc(C5CCN(C)C5=O)cc4)ncc3c(N)c2F)cnc2c1NCCO2 (single isomer, unassigned)", "Meas value": 10.12}
{"Compound": "COc1cccc(F)c1-c1cc2c(cc1C#N)NC(=O)/C2=C(/C)Nc1cnn(C)c1", "Meas value": "> 7.30"}
{"Compound": "CNCc1cc(F)c(-c2ccc3[nH]cc(-c4ccc5c(c4)OCC4CN(C)CCN54)c3n2)c(F)c1 (stereo not shown)", "Meas value": "≥ 8.00"}
{"Compound": "COc1cc2c(cc1Nc1ncc(C(N)=O)c(NC3CCc4ccc(F)cc43)n1)CN(C)CC2 (stereo not shown)", "Meas value": 9.66}

====

pIC50: −log10 of the molar value.
Let's look at some pIC50 data for HPK1 (Homo sapiens (Human), UniProt Q92918) that I collected from the literature.

{"Compound": "Cc1cccc(F)c1-n1nc2c(-c3ccc(N4CCC(O)CC4)cc3)n[nH]c2cc1=O", "pIC50": "≥ 7.30"}
{"Compound": "COc1cc2c(cc1Nc1ncc(C(N)=O)c(Nc3cccc(Br)c3)n1)CN(C)CC2", "pIC50": 8.83}
{"Compound": "O=C1NCc2c(-c3cnn4c3CCCC4)ccc(Nc3ccc(N4CCC(O)CC4)cn3)c21", "pIC50": "> 7.00"}
{"Compound": "Cn1ncc(Nc2ccc(-c3cnc4cc(F)ccn34)c3c2C(=O)NC3)c1C1CCOCC1", "pIC50": "< 6.00"}
{"Compound": "COc1cc2c(cc1Nc1ncc3ccc(NCC(=O)N4CCCC4)cc3n1)CN(C)CC2", "pIC50": 6.87}
{"Compound": "COc1cc(N2CCC(O)CC2)cnc1Nc1ccc(-c2ccnc3c2ccn3C)c2c1C(=O)NC2", "pIC50": "< 6.00"}
{"Compound": "O=c1[nH]ccc2nc(-c3cc(CN4CCCCC4)ccc3F)cc(Nc3ccc(N4CCC(O)CC4)cn3)c12", "pIC50": "6.00 to 7.00"}
{"Compound": "Cc1cccc(F)c1-n1nc2c(-c3ccc4c(c3)CN(C)[C@@H](CO)C4)n[nH]c2cc1=O", "pIC50": "6.30 to 7.30"}
{"Compound": "CC(C)c1cc(Nc2ccc(N3CCC(O)CC3)cn2)c2c(=O)[nH]ccc2n1", "pIC50": "6.00 to 7.00"}
{"Compound": "CC(C)c1nc2c(N3CC(N)C(O)C3)c(NC(=O)c3ccc(=O)n(-c4c(F)cccc4F)n3)ccc2n1C (stereo not shown)", "pIC50": "> 7.00"}
{"Compound": "O=C1NCc2c(-c3cnc4cc(CN5CC(F)C5)ccn34)ccc(Nc3ccc(N4CCC(O)CC4)cn3)c21", "pIC50": "6.00 to 7.00"}
{"Compound": "CN1CCN(c2ccc3nc(-c4c(NCCN5CCOCC5)c5cscc5[nH]c4=O)[nH]c3c2)CC1", "pIC50": "≥ 7.30"}
{"Compound": "COc1cc2c(cc1Nc1ncc3ccc(Oc4ccc([C@H](C)N)cc4)cc3n1)CN(C)CC2", "pIC50": 8.63}
{"Compound": "COc1cccc(F)c1-n1nc2c(-c3ccc(N4CCC(N5CCN(C)CC5)CC4)cc3)n[nH]c2cc1=O", "pIC50": "≥ 7.30"}
{"Compound": "O=C(Nc1ccc(-c2cc(Nc3ccc(C4CCOC4)cn3)c3c(=O)[nH]ccc3n2)c(F)c1)C1CCCCC1 (single isomer, unassigned)", "pIC50": "≥ 7.00"}
{"Compound": "Cc1cnc2c(ccn2C)c1-c1ccc(Nc2ccc(N3CCNCC3)cn2)c2c1CNC2=O", "pIC50": "6.00 to 7.00"}
{"Compound": "CCc1c[nH]c(=O)c2c(Nc3ccc(N4CCC(O)CC4)cn3)cc(-c3c(F)cccc3F)nc12", "pIC50": "6.00 to 7.00"}
{"Compound": "CNC(=O)c1ccc(F)c(-c2cc(Nc3ccc(N4CCC(O)CC4)cn3)c3c(=O)[nH]ccc3n2)c1", "pIC50": "6.00 to 7.00"}
{"Compound": "CN1CCN(c2ccc(Nc3ccc(-c4ccnc5cc[nH]c45)c4c3C(=O)NC4)nc2)CC1", "pIC50": "> 7.00"}
{"Compound": "Cn1c(-c2ccc(Nc3ccc(N4CCNCC4)cn3)c3c2CNC3=O)cnc1-c1ccccc1", "pIC50": "> 6.00"}
{"Compound": "CC(C)n1cc2c(N3CC[C@@H](CN)C3)c(NC(=O)c3ccc(=O)n(-c4c(F)cccc4F)n3)cc(F)c2n1", "pIC50": "> 7.00"}
{"Compound": "C/C(Nc1cnn([C@H](C)C#N)c1)=C1/C(=O)Nc2cnc(-c3cnccc3C)cc21", "pIC50": "> 7.30"}
{"Compound": "COc1cc2c(cc1Nc1ncc(C(N)=O)c(N[C@H]3C[C@H]4CC[C@@H](C3)N4C)n1)CN(C)CC2", "pIC50": 8.48}
{"Compound": "Cc1ccn2c(-c3ccc(Nc4ccc(N5CCC(O)CC5)cn4)c4c3CNC4=O)cnc2c1F", "pIC50": "> 7.00"}
{"Compound": "O=C1NCc2c(-c3cnc4cc(F)ccn34)ccc(Nc3cccc(N4CCC5CNCC54)n3)c21 (stereo not shown)", "pIC50": "> 7.00"}
{"Compound": "Cc1cc(F)c(NC(=O)C2(C(=O)Nc3ccc(F)cc3)CC2)cc1C1=Cc2cnc(NC3COC3)nc2N2CCN=C12", "pIC50": "< 5.00"}
{"Compound": "COc1cccc(F)c1-n1nc2c(-c3ccc(N4CCC(C)(O)CC4)cc3)n[nH]c2cc1=O", "pIC50": "≥ 7.30"}
{"Compound": "O=C1NCc2c(-c3cnc4cnccn34)ccc(Nc3ccc(N4CCOCC4)cn3)c21", "pIC50": "> 7.00"}
{"Compound": "Cn1ccc2c(-c3ncc(Nc4ccc(C5(O)CCOCC5)cn4)c4c3CNC4=O)ccnc21", "pIC50": "> 7.00"}
{"Compound": "CC(C)(O)[C@H]1CN(c2ccc(Nc3cnc(-c4cnc5c(F)cccn45)c4c3C(=O)NC4)nc2)CCO1", "pIC50": "> 7.00"}
{"Compound": "COc1cc2c(cc1Nc1ncc(C(N)=O)c(Nc3cccc(C)c3)n1)CN(C)CC2", "pIC50": 9.09}

====

Let's look at some IC50 data for HPK1 (Homo sapiens (Human)) that I collected from the literature.
Measured parameter: IC50

{"Smiles input": "O=C1NCc2c(-c3cnc4cc(F)ccn34)ccc(Nc3ccc(N4CCO[C@H]5CNC[C@H]54)cn3)c21", "Meas value": "< 100 nM"}
{"Smiles input": "CC(C)Cn1ncc2c(N3CC[C@@H](N)C3)c(NC(=O)c3ccc(=O)n(-c4c(F)cccc4F)n3)ccc21", "Meas value": "< 100 nM"}
{"Smiles input": "COc1cc2c(cc1Nc1ncc3c(N)c(F)c(-c4cnc5c(c4C)NCCO5)cc3n1)CNCC2", "Meas value": "0.979 nM"}
{"Smiles input": "CC(C)c1cc(Nc2ccc(N3CCNCC3)cn2)c2c(=O)[nH]ccc2n1", "Meas value": "100 to 1000 nM"}
{"Smiles input": "Cn1c(-c2ccncc2F)nc2c(N3CC[C@H](N)C3)c(NC(=O)c3ccnn(-c4c(F)cccc4F)c3=O)ccc21", "Meas value": "< 100 nM"}
{"Smiles input": "CN(C)Cc1cc(Nc2ccc(-c3cnc4cc(Cl)ccn34)c3c2C(=O)NC3)ncc1C1(O)CCOCC1", "Meas value": "< 100 nM"}
{"Smiles input": "COC[C@H]1CN(c2ccc(Nc3ccc(-c4cnc5cc(F)ccn45)c4c3C(=O)NC4)nc2)CCO1", "Meas value": "< 100 nM"}

====

Let's look at some IC50 data for HPK1 (Homo sapiens (Human), UniProt Q92918) that I collected from the literature.

{"Smiles input": "Cn1ccc2c(-c3ncc(Nc4ccc(N5CCC(O)CC5)cn4)c4c3CNC4=O)ccnc21", "IC50": "< 100 nM"}
{"Smiles input": "Cc1c(-c2cc3nc(Nc4ccc5c(c4)CCN(C)C5)ncc3c(N)c2F)cnc2c1NCCO2", "IC50": "0.0251 nM"}
{"Smiles input": "CN(C)C[C@H]1CN(c2ccc(Nc3ccc(-c4cnc5cc(F)ccn45)c4c3C(=O)NC4)nc2)CCO1", "IC50": "< 100 nM"}
{"Smiles input": "N#CC1(c2ccc(Nc3ncc(C(N)=O)c(Nc4ccccc4Br)n3)cc2)CC1", "IC50": "30 nM"}
{"Smiles input": "CNCc1ccc(-c2cc(Nc3ccc(N4CCC(O)CC4)cn3)c3c(=O)[nH]ccc3n2)c(F)c1", "IC50": "≤ 100 nM"}
{"Smiles input": "Cc1cc(-c2cc(Nc3ccc(N4CCNCC4)cn3)c3c(=O)[nH]ccc3n2)c(F)cc1NC(=O)C1CCCCC1", "IC50": "100 to 1000 nM"}
{"Smiles input": "N[C@H]1CN(c2c(NC(=O)c3ccc(=O)n(-c4c(F)cccc4F)n3)ccc3c2cnn3C2CCOCC2)CC12CC2", "IC50": "< 100 nM"}
{"Smiles input": "CC#Cc1nn(-c2nc(-c3cc(C)c4c(c3)CN(C)CC4)cnc2N)cc1C(=O)N(C)C", "IC50": "18 nM"}
